Parameter: Ki. Scope: all listed entries.
Biological target: h-GABA-A α5β3γ2 (Homo sapiens (Human), UniProt P18507+P31644)
Experiment: [3H]flumazenil competition binding assay, membranes of HEK293 cells expressing human GABAA receptors
Conditions: displacement of [3H]flumazenil 0.5 nM, HEK293 cells expressing human receptors, mean of two determinations; read-out: Ki h-GABA-A α5β3γ2

{"columns": ["molecule", "Ki"],
 "data": [
  ["CCC[C@@H](CO)NC(=O)c1ccc(OCc2c(-c3ccc(C)nc3)noc2C)nc1 [Example 4]", "7.3 nM"],
  ["Cc1ccc(-c2noc(C)c2COc2ccc(C(=O)N3CC4(COC4)C3)nn2)cn1 [Example 61]", "7.1 nM"],
  ["Cc1ccc(-c2noc(C)c2COc2ccc(C(=O)NC3CCS(=O)(=O)CC3)cn2)cn1 [Example 21]", "5.4 nM"],
  ["Cc1ccc(-c2noc(C3CC3)c2COc2ccc(C(=O)NC3CCOCC3)nn2)cn1 [Example 183]", "56.7 nM"],
  ["Cc1ccc(-c2noc(C)c2COc2ccc(C(=O)NC(C)(C)CCO)nn2)cn1 [Example 79]", "11.3 nM"],
  ["CCC[C@@H](CO)NC(=O)c1ccc(OCc2c(-c3cnc(C)c(F)c3)noc2C)nc1 [Example 145]", "29 nM"],
  ["Cc1ccc(-c2noc(C)c2COc2ccc(C(=O)NCC3CC3)cn2)cn1 [Example 2]", "8.3 nM"],
  ["Cc1ccc(-c2noc(C)c2COc2ccc(C(=O)N[C@H]3CC4CCC3O4)nn2)cn1 (some centres unmarked) [Example 186]", "16.6 nM"]
]}
